Listed binders paired with reported kon
Assay Target: purified recombinant human alpha synuclein fibrils (human, UniProt P37840 1-140)
Measurement Protocol: SPR, Biacore T200, as in Example 3; full-length IgG4P injected
Kindly provide the numeric value in M⁻¹ s⁻¹ only, without the unit symbol.

As a guide, the following entries are already answered.
VR6470 gL3-N33R; gH36-S56N-N102H (antibody, human IgG4 S228P, kappa, V domains shown, Full-length humanized human IgG4P) VH: EVQLLESGGGLVQPGGSLRLSCAVSGIDLSSHDMYWVRQAPGKGLEYIGAIYASGNTYYASWAKGRFTISRDSSKNTLYLQMNSLRAEDTAVYYCARIHYGHSGGLWGQGTLVTVSS VL: DIQMTQSPSSLSASVGDRVTITCQASQSVYKNRYLAWFQQKPGKAPKQLIYGASTLASGVPSRFSGSGSGTQFTLTISSLQPEDFATYYCAGYKGGRNDGFAFGGGTKVEIKR | 2.39e+06
VR6470 gL3; gH23-S56N-N102H (antibody, human IgG4 S228P, kappa, V domains shown, Full-length humanized human IgG4P) VH: EVQLLESGGGLVQPGGSLRLSCAVSGIDLSSHDMYWVRQAPGKGLEYIGAIYASGNTYYASWAKGRFTISRDNSKNTVYLQMNSLRAEDTAVYYCARIHYGHSGGLWGQGTLVTVSS VL: DIQMTQSPSSLSASVGDRVTITCQASQSVYKNNYLAWFQQKPGKAPKQLIYGASTLASGVPSRFSGSGSGTQFTLTISSLQPEDFATYYCAGYKGGRNDGFAFGGGTKVEIKR | 1.04e+06
6470gL3gH36 IgG4P (antibody, V domains shown, Full-length humanized human IgG4P; also called VR6470 gL3; VR6470) VH: EVQLLESGGGLVQPGGSLRLSCAVSGIDLSSHDMYWVRQAPGKGLEYIGAIYASGSTYYASWAKGRFTISRDSSKNTLYLQMNSLRAEDTAVYYCARIHYGNSGGLWGQGTLVTVSS VL: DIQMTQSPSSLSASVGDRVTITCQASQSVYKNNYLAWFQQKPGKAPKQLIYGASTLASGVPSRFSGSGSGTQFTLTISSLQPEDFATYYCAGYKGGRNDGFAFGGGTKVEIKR | 1.07e+06

Note: attention shifts to another entry.
Task: Reported kon, binder VR6470 gL3-N33R; gH23-S56N-N102H (antibody, human IgG4 S228P, kappa, V domains shown, Full-length humanized human IgG4P) VH: EVQLLESGGGLVQPGGSLRLSCAVSGIDLSSHDMYWVRQAPGKGLEYIGAIYASGNTYYASWAKGRFTISRDNSKNTVYLQMNSLRAEDTAVYYCARIHYGHSGGLWGQGTLVTVSS VL: DIQMTQSPSSLSASVGDRVTITCQASQSVYKNRYLAWFQQKPGKAPKQLIYGASTLASGVPSRFSGSGSGTQFTLTISSLQPEDFATYYCAGYKGGRNDGFAFGGGTKVEIKR : ____
Output: 2.07e+06

Origin of measurements: patent US20210107971A1
